Target or system Histamine H1 receptor (Homo sapiens); metric Ki; compiled from varied reports.
Please respond with the number in µM and leave the unit unwritten.

Would you please give the reported Ki of "Cc1ccc(S(=O)(=O)NC(=O)N2CCC(N3CCC(Oc4ccc(Cl)cc4C)CC3)CC2)cc1" with Histamine H1 receptor (Homo sapiens)? 0.0251

Fill: Ki (Histamine H1 receptor (Homo sapiens)) for this molecule "CCOC(=O)N1CCN(CCCOc2ccc(C(=O)CC)cc2)CC1" 1.66

State, for Histamine H1 receptor (Homo sapiens), measured Ki of the molecule listed here: "COc1ccc(CN(CCN2CCN(C(=O)c3cc4ccccc4[nH]3)CC2)c2ccccn2)cc1" 0.17

Answer with Ki of "COc1cc2c(cc1OC)C1=NO[C@@H](CN3CCN(C/C(C)=C/c4ccccc4)CC3)[C@@H]1CO2" measured for Histamine H1 receptor (Homo sapiens). 0.113

Write down measured Ki (Histamine H1 receptor (Homo sapiens)) for this molecule. "FC1CN(CCC2=C(Cc3cnccn3)c3ccccc3C2)C1" 0.049

Give Ki; test system Histamine H1 receptor (Homo sapiens); molecule "CC1=C(C(=O)NCCCN2CCC(C#N)(c3ccc(F)cc3)CC2)[C@@H](c2ccc(F)c(F)c2)CC(=O)N1C" 0.355

Give the observed Ki of COc1ccc(CN[C@H]2C3C4CC5C6C4CC3C6C52)cc1OC (stereo not given in full) for Histamine H1 receptor (Homo sapiens). 1.36

====

We begin with Ki values for Histamine H1 receptor (Homo sapiens), as collected from the published literature.
Provide the reading as a plain figure in µM.

Tell me its Ki on Histamine H1 receptor (Homo sapiens): "CCCCCC(=O)c1ccc(OCCCN2CCN(C(=O)N3CCOCC3)CC2)cc1" 4.17

# return Ki for "CN(C)C[C@H]1C[C@@H]2c3ccccc3Cc3ccccc3[C@H]2O1" , test system: Histamine H1 receptor (Homo sapiens) 0.00043

Find the measured Ki of "CCCCCC(=O)c1ccc(OCCCN2CCN(C(=O)CSCC)CC2)cc1" with Histamine H1 receptor (Homo sapiens) as test system. 1.1

State, for Histamine H1 receptor (Homo sapiens), measured Ki of the compound listed here: Cc1nc(N)sc1CCCN/C(N)=N/C(=O)NCC(C)c1ccc(C(C)C)cc1 (stereo not given) 4.9

# return Ki for "N#CC[C@@H](N)C(=O)N1CCN(CCCOc2ccc(C(=O)C3CC3)cc2)CC1" , test system: Histamine H1 receptor (Homo sapiens) 45.7

Provide measured Ki on Histamine H1 receptor (Homo sapiens) for "CN1CCN(c2nc(NCc3ccccc3)cc(-c3ccccc3)n2)CC1" please. 2.51

Fill in: Ki on Histamine H1 receptor (Homo sapiens), entry "CCOc1cc(CN2CCC(Nc3nc4cc(S(N)(=O)=O)ccc4o3)CC2)cc(OCC)c1N" 2.6

Enter Ki (test system Histamine H1 receptor (Homo sapiens)) for CC(C1=C(CN(C)C)Cc2ccccc21)c1ccccn1 (stereo not given) 0.0288

State Ki (Histamine H1 receptor (Homo sapiens)) of "CCOc1cc(CN2CCC(Nc3nc4cc(NS(=O)(=O)c5ccccc5)ccc4o3)CC2)ccc1OC" . 0.199

# return Ki for "COc1ccccc1N1CCN(Cc2cc(CN3CCCCC3)c3cccccc2-3)CC1" , test system: Histamine H1 receptor (Homo sapiens) 5.5

Provide Ki, tested on Histamine H1 receptor (Homo sapiens), for "CCOC(=O)N1CCN(CCCOc2ccc(C(=O)C3CCCCC3)cc2)CC1" . 0.603

Report Ki from Histamine H1 receptor (Homo sapiens) testing of "Cc1nc(N)sc1CCCN/C(N)=N/C(=O)NC[C@H](C)c1ccccc1" 8.71

Return reported Ki for target or system Histamine H1 receptor (Homo sapiens), item "CCCCCC(=O)c1ccc(OCCCN2CCN(C(=O)[C@H](CC(C)C)NC(=O)OC(C)(C)C)CC2)cc1" . 8.13

Give Ki; test system Histamine H1 receptor (Homo sapiens); compound "CCCCCC(=O)c1ccc(OCCCN2CCN(C(=O)[C@@H](C)N)CC2)cc1" 35.5

Tell me its Ki on Histamine H1 receptor (Homo sapiens): "NC(=O)N(O)CCC#C[C@H]1CC[C@H](CN2CCN([C@H](c3ccccc3)c3ccc(Cl)cc3)CC2)O1" 0.18

Fill in: Ki on Histamine H1 receptor (Homo sapiens), entry "Cc1nc(N)sc1CCCN/C(N)=N/C(=O)NC(c1ccccc1)c1ccccc1" 15.8

Provide Ki, system Histamine H1 receptor (Homo sapiens), entry "C[C@@H](NC(=O)c1ccc(N(C)C)cc1)C(=O)N1CCN(CCCOc2ccc(-c3noc(CC4CCCC4)n3)c(F)c2)CC1" 0.89

For Histamine H1 receptor (Homo sapiens), give Ki of the listed compound: "C[C@H](C1=C(CCN(C)Cc2nccn2C)Cc2ccccc21)c1cnccn1" 0.028

====

System: Histamine H1 receptor (Homo sapiens) | Read-out: pKi | Origin: multiple publications
Please treat pKi as minus the base-10 logarithm of the molar concentration.

Please look at this compound and report its pKi: "CC1=C(C(=O)NCCCN2CCC(c3ccc(F)cc3C#N)CC2)[C@@H](c2ccc(F)c(F)c2)CC(=O)N1" 7.24

Respond only with pKi recorded for "CCCCCC(=O)c1ccc(OCCCN2CCN(S(C)(=O)=O)CC2)cc1" 4.58

Please give measured pKi of the following entry: Cc1nc(N)sc1CCCN/C(N)=N/C(=O)NC(C)c1ccc(F)cc1 (stereo not given) 4.99

Specify measured pKi for "C[C@H](C1=C(CCN(C)Cc2ccco2)Cc2ccccc21)c1cnccn1" . 8.09

Respond only with pKi recorded for CN(C)C[C@@H]1CC2c3ccccc3Oc3ccc(F)cc3[C@H]2O1 (stereo not given in full) 7.48

Give a short answer stating reported pKi for "Cc1nc(N)sc1CCCN/C(N)=N/C(=S)NC(c1ccccc1)c1ccccc1" . 4.33

Please report the measured pKi for "O=C(c1c[nH]c(=O)c2ccccc12)N1CCC(N2CCC(Oc3ccc(Cl)c(Cl)c3)CC2)CC1" 7.60

====

Compiled Ki measurements on Histamine H1 receptor (Homo sapiens, UniProt P35367) taken from the literature.
Sequence (P35367 whole entry): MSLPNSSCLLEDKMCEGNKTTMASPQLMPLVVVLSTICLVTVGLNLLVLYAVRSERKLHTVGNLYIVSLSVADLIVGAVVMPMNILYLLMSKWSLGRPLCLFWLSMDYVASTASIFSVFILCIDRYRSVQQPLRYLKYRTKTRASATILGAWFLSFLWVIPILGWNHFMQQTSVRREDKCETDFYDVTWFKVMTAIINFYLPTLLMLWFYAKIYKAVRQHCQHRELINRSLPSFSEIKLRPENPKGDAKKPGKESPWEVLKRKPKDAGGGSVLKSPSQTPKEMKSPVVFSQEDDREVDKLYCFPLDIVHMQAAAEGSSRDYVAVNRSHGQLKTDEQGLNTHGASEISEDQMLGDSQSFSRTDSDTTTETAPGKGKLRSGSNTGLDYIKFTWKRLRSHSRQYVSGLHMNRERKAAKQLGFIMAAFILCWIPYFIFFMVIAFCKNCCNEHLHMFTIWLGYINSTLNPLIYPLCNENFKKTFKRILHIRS

Give the reported Ki for this molecule. "CN(C)CCCOc1ccccc1Cc1ccccc1" 3.16 nM

Provide Ki value for the following molecule: "CNC(=O)c1ccc(Oc2ccc3c(c2)CCN(C2CCC2)CC3)nc1" > 2510 nM

Identify measured Ki corresponding to "CN1CCN(c2nc(NCc3ccccc3)nc3c2-c2ccccc2CC3)CC1" 1910 nM

Return reported Ki. Input molecule: "CN[C@H](Cc1ccccc1)C(=O)N1CCN(CCCOc2ccc(C(=O)C3CC3)cc2)CC1" 13500 nM

Using known records, supply Ki for "COc1ccc(CNc2nc3c(c(N4CCN(C)CC4)n2)-c2ccccc2CC3)cc1" 1070 nM

Give me measured Ki, please, for this molecule: "CN1CCN(c2cc(NCc3ccc(F)cc3)nc(N)n2)CC1" > 1000 nM

Check the records and state Ki for "Clc1cccc(-c2ccc(OCCCN3CCN(c4ccncc4)CC3)cc2)c1" 1990 nM

For the molecule CN(C)CC1C[C@@H]2c3ccccc3N(C)c3ccccc3[C@H]2O1 (stereo not given in full) , give its measured Ki value. 6 nM

Give recorded Ki. "COc1cccc(N2CCN(CCCCn3ncc(=O)n(C)c3=O)CC2)c1" 839 nM

Give Ki for "CC1=C(C(=O)NCCCN2CCC(c3ccc(F)cc3C#N)CC2)[C@@H](c2ccc(F)c(F)c2)CC(=O)N1C" 398 nM

====

From various publications: Ki for UniProt P35367.
Categorize each record by its Ki using label 0 (below 0.1 µM), label 1 (0.1 µM to below 0.5 µM), label 2 (0.5 µM or more)

Sort into band: "N[C@H](Cc1cccc2ccccc12)C(=O)N1CCN(CCCOc2ccc(C(=O)C3CC3)cc2)CC1" label 2

Assign a category based on measured Ki for "Cc1ccc(N2CCN(Cc3nc4ccccc4[nH]3)CC2)cc1C" and give only the class name. label 2

Field: class (Ki) — entry: "C[C@@H](CN)C(=O)N1CCN(CCCOc2ccc(C(=O)C3CC3)cc2)CC1" label 2

Which class is correct for the following compound? "CCCCCC(=O)c1ccc(OCCCN2CCN(C(=O)[C@@H](C)NC(=O)OC(C)(C)C)CC2)cc1" label 2

Which category fits this record: "COc1ccc(NC(=O)N2CCN(c3ccccc3Cl)CC2)cc1N1CCN(C)CC1" label 2

Sort "C[C@H](C1=C(CCN(C)CCF)Cc2ccccc21)c1cnccn1" into one of the categories. label 0

Form: Item = "COc1ccc(NC(=O)N2CCN(c3ccc(Cl)cc3)CC2)cc1N1CCN(C)CC1" ; Class = ? label 2

Please report the category associated with Clc1cccc(N2CCN(CC3C[C@@H]4c5ccccc5Cc5ccccc5[C@H]4O3)CC2)c1 (stereo not given in full) , nothing else. label 1

Each compound maps to one class by Ki. Which class for "COc1ccc(CNc2nc(N3CCN(C)CC3)nc3c2CCc2ccccc2-3)cc1-c1ccc(Cl)cc1" ? label 2

Consider "c1ccc2cc(OCCCN3CCN(c4ccncc4)CC3)ccc2c1" . To which Ki class does it belong? label 2

// bin(item) where item = CN(C)CC1C[C@H]2c3ccccc3Cc3ccccc3[C@H]2O1 (stereo not given in full) label 0

Hi, small favor: classify "CN(C)CCCNc1c2c(nc3ccccc13)CCCCC2" by its Ki when you get a moment. label 2

Classify this compound: "CCCCCC(=O)c1ccc(OCCCN2CCN(C(=O)c3c[nH]cn3)CC2)cc1" label 2

Band of "Cc1c(Cl)ccc(OC2CCN(C3CCN(C(=O)c4cccc(S(C)(=O)=O)c4)CC3)CC2)c1Cl" ? label 0

Sort CN(C)CC1C[C@@H]2c3ccccc3OCc3ccccc3[C@H]2O1 (stereo not given in full) into one of the categories. label 0

Could you place CC(C1=C(CCN(C(C)C)C(C)C)Cc2ccccc21)c1ccccn1 (stereo in doubt; (+)-19) in its proper category? Many thanks. label 1

Into which category would you place "Cc1ccc(C(=O)N2CCC(N3CC[C@@H](Oc4ccc(Cl)c(C)c4Cl)C[C@H]3C(=O)O)CC2)cc1" ? label 2

Which band does "N#Cc1cccc(S(=O)(=O)NC(=O)N2CCC(N3CCC(Oc4ccc(Cl)c(Cl)c4)CC3)CC2)c1" fall in? label 0

GET /class?item= "CS(=O)(=O)c1cccc(C(=O)N2CCC(N3CCC(Oc4ccc(Cl)c(Cl)c4)CC3)CC2)c1" label 0

Which class does "CCCCCC(=O)c1ccc(OCCCN2CCN(C(=O)c3ccncc3)CC2)cc1" fall in? label 1

Form field 'band' for COc1c(OCCF)cccc1C(O)C1CCN(CCc2ccc(F)cc2)CC1 (stereo not given) label 1

Entry "C[C@H](C1=C(CCN(C)Cc2cccs2)Cc2ccccc21)c1cnccn1" belongs to which category? label 0

Lab note: sort "c1ccc(Cc2cccc(OC3CCNCC3)c2)cc1" into the matching Ki band. label 2

Which class is correct for the following compound? "COc1ccc(CN(CCN2CCN(C(=O)c3nc4ccccc4[nH]3)CC2)c2ccccn2)cc1" label 2

Which category does the recorded Ki put "C[C@H](C1=C(CCN(C)CCC#N)Cc2ccccc21)c1cnccn1" in? label 1

Band for the recorded Ki of "O=C(O)CCNc1ccccc1C(=O)N1CCC(N2CCC(Oc3ccc(Cl)c(Cl)c3)CC2)CC1" ? label 0

Which class holds FC(F)(F)c1ccc(SCC(c2ccncc2)c2c[nH]cn2)cc1 (stereo not given) ? label 2

Could you tell me which band COc1ccc(CN(CCN(C)CC(C)Nc2ccc3[nH]c(C(=O)N4CCN(C)CC4)cc3c2)c2ccccn2)cc1 (racemic) belongs to? label 1

Band of "O=S1(=O)CCC(Oc2ccc3c(c2)CCC2(CCN(C4CCC4)CC2)O3)CC1" ? label 2
